# ASSAY_NOTES: CCTE_Shafer_MEA_dev_network_spike_duration_std: CCTE's Neural Network Formation Assay for Standard Deviation of Network Spike Duration, Shafer Lab (AID 2284052);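 note: area under curve of spike duration SD across recording days 5 to 12; hits are decreases in network spike duration SD versus DMSO vehicle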
# Protocol: CCTE_Shafer_MEA_dev assay is conducted using Axion Biosystems 48 well microelectrode array (MEA) plates and Maestro recording system. Each well of the MEA plate contains a grid of 16 microelectrodes embedded in the culture surface. Electrically active cells, such as neurons, can be cultured over the electrodes, and electrical activity in these cells can be recorded extracellularly. […]
The source made the active and inactive calls. Rule for the calls: active = hit-call score of the fitted dose curve at least 0.9, where 1 is the maximum; inactive = score below 0.9.
Possible outcomes: active, inactive

compound="CC(C)(C)C(=O)C(Oc1ccc(Cl)cc1)n1cncn1 (stereo not given)" assigned_label=inactive
compound=COP(=S)(OC)SCn1nnc2ccccc2c1=O assigned_label=inactive
compound=CCSC(=O)N1CCCCCC1 assigned_label=inactive
compound="O=C1C2CC=CCC2C(=O)N1SC(Cl)(Cl)Cl (stereo not given)" assigned_label=inactive
compound=CN/C(=N\[N+](=O)[O-])NCc1cnc(Cl)s1 assigned_label=inactive
compound="CCCN(CC)CC1COC2(CCC(C(C)(C)C)CC2)O1 (stereo not given)" assigned_label=active
compound=C=C(C)CN(CC)c1c([N+](=O)[O-])cc(C(F)(F)F)cc1[N+](=O)[O-] assigned_label=active
compound=N#CN=C1SCCN1Cc1ccc(Cl)nc1 assigned_label=inactive
compound=COP(=S)(OC)Oc1ccc([N+](=O)[O-])c(C)c1 assigned_label=inactive
compound=CCNC(=O)NC(=O)C(C#N)=NOC assigned_label=inactive

====

# Read-out: Monocyte Chemoattractant Protein-1 (MCP1), CCL2 (gene 6347)
# ASSAY_NOTES: BSK_3C_MCP1: BioMAP Diversity Plus: 3C Assay for Monocyte Chemoattractant Protein-1 (MCP1) Biomarker Activity (AID 2283017)
# STATED_CONDITIONS: primary human endothelial cells (HUVEC); actives raise or lower the signal
Calls of active or inactive are those of the source. How the source made its calls: active means hit-call score of the fitted dose curve at least 0.9, where 1 is the maximum; inactive means score below 0.9.
Possible outcomes: active, inactive

compound=CC(C)Nc1nc(Cl)nc(NC(C)C)n1 assigned_label=inactive
compound=COC(=O)NC(=S)Nc1ccccc1NC(=S)NC(=O)OC assigned_label=inactive
compound=COc1cc(OC)nc(NC(=O)NS(=O)(=O)c2ncccc2OCC(F)(F)F)n1 assigned_label=inactive
compound=COP(=O)(OC)O/C(C)=C/C(=O)N(C)C assigned_label=inactive
compound=Cc1cc(C)nc(Nc2ccccc2)n1 assigned_label=inactive
compound=COC(=O)N(C(=O)N1CO[C@@]2(C(=O)OC)Cc3cc(Cl)ccc3C2=N1)c1ccc(OC(F)(F)F)cc1 assigned_label=inactive
compound=CC(C)N1C(=O)N(c2ccccc2)CSC1=NC(C)(C)C assigned_label=active
compound="O=C1C2CC=CCC2C(=O)N1SC(Cl)(Cl)Cl (centres undefined)" assigned_label=inactive
compound="COCc1cnc(C2=NC(C)(C(C)C)C(=O)N2)c(C(=O)O)c1 (centres undefined)" assigned_label=inactive
compound=CS(=O)(=O)c1ccc(C(=O)C2C(=O)CCCC2=O)c([N+](=O)[O-])c1 assigned_label=inactive
compound=COP(=S)(OC)Oc1ccc([N+](=O)[O-])c(C)c1 assigned_label=active
compound=COc1cc(Cl)c(OC)cc1Cl assigned_label=inactive
compound="CC(C)=CC1C(C(=O)OCc2coc(Cc3ccccc3)c2)C1(C)C (centres undefined)" assigned_label=active
compound=COc1ccc(-c2ccccc2)cc1NNC(=O)OC(C)C assigned_label=inactive
compound=CN=C=S assigned_label=inactive
compound=CSC(=O)c1c(C(F)F)nc(C(F)(F)F)c(C(=O)SC)c1CC(C)C assigned_label=active
compound=C=C(C)CN(CC)c1c([N+](=O)[O-])cc(C(F)(F)F)cc1[N+](=O)[O-] assigned_label=inactive
compound=COC(=O)c1c(C(F)F)nc(C(F)(F)F)c(C2=NCCS2)c1CC(C)C assigned_label=inactive
compound=CCOc1nc(F)cc2nc(S(=O)(=O)Nc3c(Cl)cccc3Cl)nn12 assigned_label=active
compound=CCOc1nc(C(Cl)(Cl)Cl)ns1 assigned_label=inactive
compound="CCNP(=S)(OC)O/C(C)=C/C(=O)OC(C)C (centres undefined)" assigned_label=inactive
compound=Nc1c(Cl)c(Cl)nc(C(=O)O)c1Cl assigned_label=inactive
compound="CCOC(=O)C(C)OC(=O)c1cc(Oc2ccc(C(F)(F)F)cc2Cl)ccc1[N+](=O)[O-] (centres undefined)" assigned_label=active
compound=N#Cc1c[nH]cc1-c1cccc2c1OC(F)(F)O2 assigned_label=active
compound=CO/N=C(/C1=NOCCO1)c1ccccc1Oc1ncnc(Oc2ccccc2Cl)c1F assigned_label=active
compound=COP(=S)(OC)SCn1nnc2ccccc2c1=O assigned_label=inactive
compound="COCC(C)N(C(=O)CCl)c1c(C)csc1C (centres undefined)" assigned_label=inactive
compound=COC(=O)NS(=O)(=O)c1ccc(N)cc1 assigned_label=inactive
compound=CCOP(=S)(OCC)Oc1nc(Cl)n(C(C)C)n1 assigned_label=inactive
compound=CC(C)NC(=O)N1CC(=O)N(c2cc(Cl)cc(Cl)c2)C1=O assigned_label=inactive
compound="CCCN(CC)CC1COC2(CCC(C(C)(C)C)CC2)O1 (centres undefined)" assigned_label=inactive
compound="Cc1cnc(C2=NC(C)(C(C)C)C(=O)N2)c(C(=O)O)c1 (centres undefined)" assigned_label=inactive
compound="COCC(=O)N(c1c(C)cccc1C)C(C)C(=O)OC (centres undefined)" assigned_label=inactive
compound=Nc1c(Cl)c(F)nc(OCC(=O)O)c1Cl assigned_label=inactive

====

# STUDY_SYSTEM: Estrogen receptor (Homo sapiens) (UniProt P03372)
# Sequence (P03372 whole entry, looked up): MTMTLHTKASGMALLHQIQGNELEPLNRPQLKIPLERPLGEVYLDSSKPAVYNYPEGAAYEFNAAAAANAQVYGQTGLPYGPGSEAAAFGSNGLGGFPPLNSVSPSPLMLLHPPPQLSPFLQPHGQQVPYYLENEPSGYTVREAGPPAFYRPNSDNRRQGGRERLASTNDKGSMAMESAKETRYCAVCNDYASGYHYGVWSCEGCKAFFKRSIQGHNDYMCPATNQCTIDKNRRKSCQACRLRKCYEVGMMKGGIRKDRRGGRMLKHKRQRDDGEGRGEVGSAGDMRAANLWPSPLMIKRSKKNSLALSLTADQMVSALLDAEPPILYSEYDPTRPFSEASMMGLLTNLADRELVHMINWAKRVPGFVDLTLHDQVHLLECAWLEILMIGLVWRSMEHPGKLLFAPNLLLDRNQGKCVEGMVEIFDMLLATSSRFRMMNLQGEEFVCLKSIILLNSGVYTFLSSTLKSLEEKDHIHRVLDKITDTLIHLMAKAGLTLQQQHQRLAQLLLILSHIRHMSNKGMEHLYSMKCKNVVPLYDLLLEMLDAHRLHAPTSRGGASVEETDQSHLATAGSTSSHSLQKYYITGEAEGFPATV
# ASSAY_NOTES: ATG_ERa_TRANS: Attagene TRANS-FACTORIAL HepG2 Assay for human Estrogen Receptor alpha (ERa) (AID 2282970)
# STATED_CONDITIONS: HepG2 Attagene TRANS ERa GAL4 reporter, mRNA
Inconclusive results are not listed. The source made the active and inactive calls. The calls were made as follows: active = hit-call score of the fitted dose curve at least 0.9, where 1 is the maximum; inconclusive = response in the unintended direction; inactive = score below 0.9.
VALUE_KIND: AC50

compound="COCC(C)N(C(=O)CCl)c1c(C)csc1C (stereo not drawn)" measured_value=inactive
compound="CC1(C)C(C(=O)OC(C#N)c2cccc(Oc3ccccc3)c2)C1(C)C (stereo not drawn)" measured_value="21.3 µM (active)"
compound=CNC(=O)N(C)c1nnc(C(C)(C)C)s1 measured_value=inactive
compound=CCNC(=O)NC(=O)C(C#N)=NOC measured_value=inactive
compound="Cc1cnc(C2=NC(C)(C(C)C)C(=O)N2)c(C(=O)O)c1 (stereo not drawn)" measured_value=inactive
compound=CCSC(=O)N1CCCCCC1 measured_value=inactive
compound=O=P(O)(O)CCCl measured_value=inactive
compound=Cc1nc(N(C)C)nc(OC(=O)N(C)C)c1C measured_value=inactive
compound=O=C(O)c1c(Cl)ccc2cc(Cl)cnc12 measured_value=inactive
compound=CNC(=O)Oc1cccc2ccccc12 measured_value="50 µM (active)"
compound=COc1cc(OC)nc(NC(=O)NS(=O)(=O)c2ncccc2OCC(F)(F)F)n1 measured_value=inactive
compound=CCOc1nc(C(Cl)(Cl)Cl)ns1 measured_value=inactive
compound=CC1(C)CON(Cc2ccccc2Cl)C1=O measured_value="66.7 µM (active)"

====

# Tested on: turtle Estrogen Receptor (ERa), gene 101933533
# ASSAY_NOTES: ATG_trERa_XSP2: Attagene TRANS-FACTORIAL Multi-Species (XSP2) HepG2 Assay for turtle Estrogen Receptor (ERa) (AID 2283812);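 note: human HepG2 liver cells transiently expressing turtle ERa-Gal4 chimeric receptor; reporter mRNA from GAL4-UAS units measured by RT-PCR and capillary electrophoresis; actives raise reporter signal above DMSO so AC50 reflects agonist activity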
Records with an inconclusive call do not appear. Activity calls are given as the source filed them. Rule for the calls: active = hit-call score of the fitted dose curve at least 0.9, where 1 is the maximum; inconclusive = response in the unintended direction; inactive = score below 0.9.
Possible outcomes: class 1 (active), class 0 (inactive)

compound=CSC(=O)c1c(C(F)F)nc(C(F)(F)F)c(C(=O)SC)c1CC(C)C assigned_label="class 0"
compound=Cc1c(COC(=O)[C@@H]2[C@H](/C=C(\Cl)C(F)(F)F)C2(C)C)cccc1-c1ccccc1 assigned_label="class 1"
compound="CC1(C)CCC(=Cc2ccc(Cl)cc2)C1(O)Cn1cncn1 (stereo unspecified)" assigned_label="class 0"
compound=CC(C)NC(=O)N1CC(=O)N(c2cc(Cl)cc(Cl)c2)C1=O assigned_label="class 0"
compound=COP(=S)(OC)Oc1ccc([N+](=O)[O-])c(C)c1 assigned_label="class 1"
compound="CC1(C)C(C=C(Cl)Cl)C1C(=O)OC(C#N)c1cccc(Oc2ccccc2)c1 (stereo unspecified)" assigned_label="class 1"

====

# ASSAY_NOTES: IUF_NPC4_neurite_area_120hr: Leibniz Research Institute for Environmental Medicine (IUF) 120-hour Neuronal Morphology Assay for Neurite Area (NPC4) (AID 2284305)
Inconclusive results are not listed. The source made the active and inactive calls. Rule for the calls: active = hit-call score of the fitted dose curve at least 0.9, where 1 is the maximum; inconclusive = response in the unintended direction; inactive = score below 0.9.
Possible outcomes: active, inactive

compound="CC1(C)C(C=C(Cl)Cl)C1C(=O)OC(C#N)c1cccc(Oc2ccccc2)c1 (stereo unspecified)" assigned_label=inactive
compound=CO/N=C(/C1=NOCCO1)c1ccccc1Oc1ncnc(Oc2ccccc2Cl)c1F assigned_label=inactive
compound=CCNC(=O)NC(=O)C(C#N)=NOC assigned_label=inactive
compound=COP(=S)(OC)SCn1nnc2ccccc2c1=O assigned_label=inactive
compound=CNC(=O)Oc1cccc2ccccc12 assigned_label=active
compound=Cc1c(COC(=O)[C@@H]2[C@H](/C=C(\Cl)C(F)(F)F)C2(C)C)cccc1-c1ccccc1 assigned_label=inactive
compound=N#CN=C1SCCN1Cc1ccc(Cl)nc1 assigned_label=inactive
compound=O=C(Nc1ccccc1-c1ccc(Cl)cc1)c1cccnc1Cl assigned_label=inactive
compound=CCOP(=O)(OCC)Oc1nc(Cl)c(Cl)cc1Cl assigned_label=inactive
compound=CN/C(=N\[N+](=O)[O-])NCc1cnc(Cl)s1 assigned_label=active
compound=CS(=O)(=O)c1cc(C(F)(F)F)ccc1C(=O)c1cnoc1C1CC1 assigned_label=inactive
